Kindly supply the reported EC50 values for the records listed here.
Experiment: NIH3T3 cell viability loss – ATP luminescence, mouse fibroblasts, counter-screen, dose response (AID 2010);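 also: cells exposed to compound for about 90 hours before reading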
Type: functional, cell-based
The source made the active and inactive calls.

Study these solved cases before continuing.
{"molecule": "CC(C)Nc1nc(NC(C)C)nc(N(C#N)CCOc2ccc(Cl)cc2Cl)n1", "EC50": "> 60 µM (not active)"}
{"molecule": "O=C(COc1ccc(/C=N/NC(=O)c2cc3ccccc3o2)cc1Cl)Nc1ccccc1", "EC50": "19.2 µM (active)"}
{"molecule": "CCOC(=O)N/N=C(/C)c1ccc([N+](=O)[O-])o1", "EC50": "> 30 µM (not active)"}
{"molecule": "Cc1nc(Nc2ccc(S(=O)(=O)N3CCCCC3C)cc2)c2nnn(Cc3ccccc3)c2n1 (stereo unspecified)", "EC50": "> 60 µM (not active)"}
{"molecule": "NC(=S)N/N=C/c1ccc(-c2ccc(SC(F)F)cc2)o1", "EC50": "12.7 µM (active)"}

Answer for every listed entry: what is its EC50? The entries follow.
1. Cc1ccc(-c2c[n+](Cc3ccc(Cl)cc3)c3n2CCC3)cc1
2. Fc1ccc(CCNCc2ccc(Cl)c(Cl)c2)cc1
3. O=C(COc1ccccc1)N1CCN(c2nnc(-c3ccccc3)c3ccccc23)CC1
4. c1cncc(-c2nc(NCCCN3CCOCC3)c3c4c(sc3n2)CCC4)c1

output:
["> 30 µM (not active)", "> 30 µM (not active)", "> 60 µM (not active)", "> 60 µM (not active)"]

List the reported EC50 of each molecule below.
1. CC(=O)c1c(C)[nH]c(C(=O)Nc2nc(-c3ccc(-c4ccccc4)cc3)cs2)c1C
2. COc1ccc(NC(=O)c2cccc(Cn3cc(Br)c([N+](=O)[O-])n3)c2)c(C)c1

output:
> 60 µM (not active)
9.14 µM (active)

----------
What follows is a record of AC50 for UniProt P11712.
Sequence (P11712 whole entry): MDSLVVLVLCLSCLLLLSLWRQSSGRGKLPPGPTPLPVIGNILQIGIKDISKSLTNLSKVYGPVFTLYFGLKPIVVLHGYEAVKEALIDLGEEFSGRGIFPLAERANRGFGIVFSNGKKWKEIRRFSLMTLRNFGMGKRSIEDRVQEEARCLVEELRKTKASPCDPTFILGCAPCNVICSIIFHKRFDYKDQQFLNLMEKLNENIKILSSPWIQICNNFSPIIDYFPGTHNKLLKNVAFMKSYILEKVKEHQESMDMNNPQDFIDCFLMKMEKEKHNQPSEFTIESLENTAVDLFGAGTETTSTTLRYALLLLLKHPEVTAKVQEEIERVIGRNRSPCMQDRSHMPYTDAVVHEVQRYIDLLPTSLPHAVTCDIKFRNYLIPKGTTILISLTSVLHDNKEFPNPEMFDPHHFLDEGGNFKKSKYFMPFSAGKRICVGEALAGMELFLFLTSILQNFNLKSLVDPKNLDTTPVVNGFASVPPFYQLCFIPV

Here is how some compounds turned out for AC50.
{"compound": "Fc1ccc(CCNCc2ccc(Cl)c(Cl)c2)cc1", "measuredOn": "UniProt P11712", "metricName": "AC50", "testResult": "17.8 µM (inconclusive)"}
{"compound": "Cc1nn(-c2ccccc2)c(-c2ccccc2)c1C(=O)O", "measuredOn": "UniProt P11712", "metricName": "AC50", "testResult": "1.12 µM (inconclusive)"}
{"compound": "CC(C)c1cccc2nc3c(c([Si](C)(C)C)c12)Cn1c-3cccc1=O", "measuredOn": "UniProt P11712", "metricName": "AC50", "testResult": "39.8 µM (inconclusive)"}
{"compound": "COC(=O)[C@@]1(Cc2ccc(OC)cc2)[C@H]2c3cc(C(=O)N4CCCC4)n(CCN4CCOCC4)c3C[C@H]2CN1C(=O)c1ccccc1", "measuredOn": "UniProt P11712", "metricName": "AC50", "testResult": "31.6 µM (inconclusive)"}

Hi there! I need AC50 for each item below, if you can.
1. CCOC(=O)NC1(C(F)(F)F)C(=O)N(Cc2ccccc2)C2=C1C(=O)CC(C)(C)C2 (stereo unspecified)
2. CC(C)(C)[Si](C)(C)c1c2c(nc3ccc(OCc4ccccc4)cc13)-c1cccc(=O)n1C2
3. CC(C)c1nc2oc3ccccc3c(=O)c2c(=O)n1-c1ccccc1

output:
1: 28.2 µM (inconclusive); 2: 20 µM (inconclusive); 3: 1.78 µM (inconclusive)

I have 8 compounds here; please give me AC50 for each one.
1. CCOC(=O)C(C)n1cnc2c(oc3ccccc32)c1=O (stereo unspecified)
2. CCOC(=O)c1[nH]c2cc3c(cc2c1NC(=O)CN1CCc2ccccc2C1)OCO3
3. Cn1c(=O)c(CCc2ccccc2)nc2cnc(Nc3ccccc3)nc21
4. Cc1cccc(Nc2ccncc2S(=O)(=O)NC(=O)NC(C)C)c1 [TORSEMIDE]
5. Cc1ccc(CS(=O)(=O)CCC(=O)NCc2cccs2)cc1
6. CCOC(=O)c1c(NC(=O)Cn2cc([N+](=O)[O-])cn2)sc2c1CCC2
7. Cc1ccc(/C=C/c2nnc(-c3ccc(C)cc3)o2)cc1
8. Fc1ccccc1OCCCCCCN1CCCC1

output:
1. 28.2 µM (inconclusive)
2. 7.94 µM (inconclusive)
3. 10 µM (inconclusive)
4. 12.6 µM (inconclusive)
5. 5.01 µM (inconclusive)
6. 3.55 µM (inconclusive)
7. 5.62 µM (inconclusive)
8. 39.8 µM (inconclusive)

Working through the 6 compounds below one at a time, give AC50 for each.
1. Cn1cccc1C(=O)N1CCC2(CCCN(c3ccncc3)C2)CC1
2. CC[C@H](C(=O)c1cccs1)C(O)(C(F)(F)F)C(F)(F)F
3. COc1ccc(NC(=O)N2CC[C@@]3(CCCN(C(=O)c4ccc(OC)cc4)C3)C2)cc1
4. Cc1ncsc1CCCl
5. COc1ccccc1CNc1ncnc2ccc(-c3c(C)noc3C)cc12
6. CCCOc1ccc(/C=C/C(=O)Nc2ccc([N+](=O)[O-])cc2C)cc1

output:
1: 25.1 µM (inconclusive); 2: 7.94 µM (inconclusive); 3: 12.6 µM (inconclusive); 4: 2.51 µM (inconclusive); 5: 0.794 µM (inconclusive); 6: 1.41 µM (inconclusive)
